# Tested Target: T1, monkey MSLN on HEK293T-monkey MSLN recombinant cells (monkey)
# T1 construct: Full-length precursor as transfected; processing on the cell is not described; also called HEK293-monkey MSLN
# T1 chain: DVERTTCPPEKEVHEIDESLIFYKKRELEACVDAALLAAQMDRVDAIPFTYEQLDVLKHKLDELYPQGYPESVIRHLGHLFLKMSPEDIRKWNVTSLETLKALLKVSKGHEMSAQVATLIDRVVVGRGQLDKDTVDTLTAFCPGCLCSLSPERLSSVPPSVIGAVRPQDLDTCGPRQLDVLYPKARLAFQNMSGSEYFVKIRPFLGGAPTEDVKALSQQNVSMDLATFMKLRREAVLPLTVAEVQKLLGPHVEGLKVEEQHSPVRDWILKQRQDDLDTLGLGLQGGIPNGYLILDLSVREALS
# Test: FACS, HEK293T-monkey MSLN cells
Quantity Name: EC50 (nM)

>>> observed_measurement("F7.44.20-H2 (scFv, not shown: small tags and cut ends, also called S009-F7.44.20 humanized antibody VH1 + VL2) scFv: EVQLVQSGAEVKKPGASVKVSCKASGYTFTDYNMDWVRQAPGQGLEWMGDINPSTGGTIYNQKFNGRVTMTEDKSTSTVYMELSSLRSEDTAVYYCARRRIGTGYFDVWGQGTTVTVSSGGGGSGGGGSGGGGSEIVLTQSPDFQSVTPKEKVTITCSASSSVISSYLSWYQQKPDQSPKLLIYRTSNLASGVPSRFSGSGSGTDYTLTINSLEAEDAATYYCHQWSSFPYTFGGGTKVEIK")
5.5
>>> observed_measurement("F7.44.20-VL-VH (scFv) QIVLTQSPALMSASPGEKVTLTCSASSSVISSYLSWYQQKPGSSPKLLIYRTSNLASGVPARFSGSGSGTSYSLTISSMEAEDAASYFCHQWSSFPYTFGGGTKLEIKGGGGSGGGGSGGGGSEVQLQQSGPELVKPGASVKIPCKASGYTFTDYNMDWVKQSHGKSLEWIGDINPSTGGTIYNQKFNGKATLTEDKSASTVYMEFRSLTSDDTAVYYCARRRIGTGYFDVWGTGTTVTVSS")
2.97
>>> observed_measurement("F7.44.20-H12 (scFv, not shown: small tags and cut ends, also called S009-F7.44.20 humanized antibody VH2 + VL4) scFv: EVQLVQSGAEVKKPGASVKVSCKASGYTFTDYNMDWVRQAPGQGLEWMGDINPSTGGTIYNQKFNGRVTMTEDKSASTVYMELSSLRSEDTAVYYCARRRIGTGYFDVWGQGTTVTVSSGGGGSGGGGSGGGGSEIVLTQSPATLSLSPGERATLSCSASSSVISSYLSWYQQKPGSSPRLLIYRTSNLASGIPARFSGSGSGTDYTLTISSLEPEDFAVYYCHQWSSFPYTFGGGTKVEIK")
10.3
>>> observed_measurement("F7.44.20-H14 (scFv, not shown: small tags and cut ends, also called S009-F7.44.20 humanized antibody VH2a + VL2) scFv: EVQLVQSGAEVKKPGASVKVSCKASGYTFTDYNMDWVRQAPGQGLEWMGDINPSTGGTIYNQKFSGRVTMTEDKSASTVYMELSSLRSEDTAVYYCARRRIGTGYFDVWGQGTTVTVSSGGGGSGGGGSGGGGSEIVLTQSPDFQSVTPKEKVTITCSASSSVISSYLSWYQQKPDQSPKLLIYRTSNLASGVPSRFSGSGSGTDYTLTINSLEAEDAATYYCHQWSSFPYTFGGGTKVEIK")
7.37
>>> observed_measurement("F7.44.20 (scFv) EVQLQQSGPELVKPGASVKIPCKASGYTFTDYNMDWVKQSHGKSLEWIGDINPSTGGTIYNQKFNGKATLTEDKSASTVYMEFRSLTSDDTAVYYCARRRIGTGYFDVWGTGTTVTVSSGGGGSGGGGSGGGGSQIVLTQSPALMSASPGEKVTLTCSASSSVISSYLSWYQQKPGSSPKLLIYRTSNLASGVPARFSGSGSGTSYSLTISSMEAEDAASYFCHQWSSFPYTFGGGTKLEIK")
8.38
>>> observed_measurement("F7.44.20-H3 (scFv, not shown: small tags and cut ends, also called S009-F7.44.20 humanized antibody VH1 + VL3) scFv: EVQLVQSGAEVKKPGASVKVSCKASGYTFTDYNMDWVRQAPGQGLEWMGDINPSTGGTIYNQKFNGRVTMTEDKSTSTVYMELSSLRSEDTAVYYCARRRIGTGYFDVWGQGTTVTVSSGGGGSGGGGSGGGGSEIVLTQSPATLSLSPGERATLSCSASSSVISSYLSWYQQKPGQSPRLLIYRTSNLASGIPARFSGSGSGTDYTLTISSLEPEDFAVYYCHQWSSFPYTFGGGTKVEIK")
7.34
>>> observed_measurement("F7.44.20-H5 (scFv, not shown: small tags and cut ends, also called S009-F7.44.20 humanized antibody VH1a + VL1) scFv: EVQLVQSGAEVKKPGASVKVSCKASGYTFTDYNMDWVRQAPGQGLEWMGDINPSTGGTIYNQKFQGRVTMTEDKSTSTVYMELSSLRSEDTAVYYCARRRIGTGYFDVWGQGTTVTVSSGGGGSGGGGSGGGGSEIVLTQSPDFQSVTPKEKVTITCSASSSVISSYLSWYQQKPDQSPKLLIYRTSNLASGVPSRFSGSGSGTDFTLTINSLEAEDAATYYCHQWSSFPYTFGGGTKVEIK")
4.55
